Known EC50 of a selection of compounds
Biological target: recombinant IL4I1 (Homo sapiens (Human), UniProt Q96RQ9)
Sequence (Q96RQ9 22-567): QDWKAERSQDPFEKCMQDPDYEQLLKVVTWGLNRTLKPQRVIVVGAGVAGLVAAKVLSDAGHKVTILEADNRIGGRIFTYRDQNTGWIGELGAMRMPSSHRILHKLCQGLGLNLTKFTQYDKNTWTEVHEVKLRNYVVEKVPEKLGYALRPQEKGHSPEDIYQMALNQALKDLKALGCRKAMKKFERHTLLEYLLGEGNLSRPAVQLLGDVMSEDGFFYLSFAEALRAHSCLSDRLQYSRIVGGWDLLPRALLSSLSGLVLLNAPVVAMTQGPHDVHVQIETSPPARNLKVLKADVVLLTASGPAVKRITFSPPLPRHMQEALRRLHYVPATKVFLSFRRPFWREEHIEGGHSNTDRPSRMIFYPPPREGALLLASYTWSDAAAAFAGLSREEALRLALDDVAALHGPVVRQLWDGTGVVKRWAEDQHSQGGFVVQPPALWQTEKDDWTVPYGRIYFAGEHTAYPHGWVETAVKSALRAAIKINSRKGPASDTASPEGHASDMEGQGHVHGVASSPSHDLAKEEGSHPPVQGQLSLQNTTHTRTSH
Test: IL4I1 Enzymatic Assay (Amplex Red/HRP coupled H2O2 detection)
Details: 1 nM IL4I1, 1 mM each Phe/Tyr/Trp, four-hour pre-incubation, 120 minutes reaction, top compound concentration of 10000 nM
The reply should contain only the number, in nM.

Looking up O=C1CCc2cc(Cc3cc4cc(F)ccc4[nH]c3=O)ccc2N1 [Example 123] , I see its EC50 listed as 3.7

Looking up Cc1oncc1-c1nnc(Cc2cc3ccccc3[nH]c2=O)o1 [Example 29] , I see its EC50 listed as 547

Looking up NS(=O)(=O)c1c(Cl)cc(Cc2cc3ccccc3[nH]c2=O)cc1Cl [Example 71] , I see its EC50 listed as 3.7

Looking up O=c1[nH]c2ccccc2cc1Cc1nnc(CC2CC2)o1 [Example 27] , I see its EC50 listed as 70.3

Looking up O=c1[nH]c2ccccc2cc1Cc1coc2ccccc12 [Example 136] , I see its EC50 listed as 0.5

Looking up O=C1CCC(c2ccc(Cc3cc4ccccc4[nH]c3=O)cc2Cl)N1 (centres unmarked) [Example 181] , I see its EC50 listed as 2.5

Looking up Cc1c(Cc2ccccc2)c(=O)[nH]c2ccccc12 [Example 164, 3-Benzyl-4-methylquinolin-2(1H)-one] , I see its EC50 listed as 10000

Looking up CS(=O)(=O)Nc1ccc(Cc2cc3ccccc3[nH]c2=O)cn1 [Example 48] , I see its EC50 listed as 21.4

Looking up O=c1[nH]c2ccccc2cc1Cc1cnn2ncccc12 [Example 158] , I see its EC50 listed as 60.2

* * *

Known EC50 of a selection of compounds
Molecular target: recombinant IL4I1 (Homo sapiens (Human), UniProt Q96RQ9)
Test: IL4I1 Enzymatic Assay (Amplex Red/HRP coupled H2O2 detection)
Settings: 1 nM IL4I1, 1 mM each Phe/Tyr/Trp, four-hour pre-incubation, 120 minutes reaction, top compound concentration of 10000 nM
Write the numeric value and append its unit.

[[record]]
compound = "CC1(O)CC(c2ccc(Cc3cc4cnccc4[nH]c3=O)cc2)C1 (stereo not drawn)"
endpoint_result = "6.8 nM"

[[record]]
compound = "O=c1[nH]c2ccccc2cc1Cc1cnn(CC2(C(F)F)CC2)c1"
endpoint_result = "24.6 nM"

[[record]]
compound = "O=c1[nH]c2ccccc2cc1Cc1ccc2scnc2c1"
endpoint_result = "1.4 nM"

[[record]]
compound = "O=c1[nH]c2ccccc2cc1Cc1cnn2c1CCC2"
endpoint_result = "11.3 nM"

[[record]]
compound = "CC(C)(O)c1ccc(Cc2cc3ccccc3[nH]c2=O)cc1"
endpoint_result = "6.3 nM"

[[record]]
compound = "O=c1[nH]c2ccccc2cc1Cc1ccc2c(c1)S(=O)(=O)CC2"
endpoint_result = "2.4 nM"

[[record]]
compound = "O=c1[nH]c2ccccc2cc1Cc1nnc(-c2c[nH]c(C3CC3)n2)o1"
endpoint_result = "23.4 nM"

[[record]]
compound = "O=c1[nH]c2ccccc2cc1Cc1nnc(-c2cnn[nH]2)o1"
endpoint_result = "77.1 nM"

[[record]]
compound = "NCc1cccc2cc(Cc3cccc(OC(F)(F)F)c3)c(=O)[nH]c12"
endpoint_result = "99 nM"

[[record]]
compound = "C[C@@](O)(c1ccc(Cc2cc3ccccc3[nH]c2=O)cc1)C(F)F (stereo in doubt) [Example 90A]"
endpoint_result = "9.6 nM"


Field: next compound
Looking up O=C1OC(CO)CN1c1ccc(Cc2cc3ccccc3[nH]c2=O)cn1 (racemic) , I see its EC50 listed as 15.6 nM
